Every entry's value here was drawn from PubChem BioAssay AID1845225.

ASSAY_NOTES: Confirmatory redox qHTS assay for identification of artifact compounds.
CONDITION_CONTEXT: Amplex Red/HRP redox cycling with DTT, fluorescence; series mostly up to 39 µM
Results filed as inconclusive are left out. Calls of active or inactive are those of the source. Calls follow the shape of the dose curve; as a rule, active = well fitted curve in the direction sought with a large enough effect; inconclusive = small, poorly fitted or top-dose-only effect, or effect the other way, or another doubt; inactive = no such curve, though single readings can be large or run the other way.
READOUT_TYPE: redox activity vs DA3003

Some entries whose results are on file:
COc1ccc(CCNC(=O)c2cc(=O)[nH]c3ccc(S(=O)(=O)N4CCCCC4)cc23)cc1OC = inactive
COc1ccc(-c2cc(=O)c3ccccc3o2)cc1 = inactive
COc1ccc(CCNC(=O)c2cc3c(-c4ccc(OC)c(OC)c4)nn(C)c3s2)cc1OC = inactive
Cc1cc(C)c(S(=O)(=O)NCC(c2ccco2)S(=O)(=O)c2cccs2)c(C)c1 (stereo not drawn) = inactive
CCOc1ccc(CCNC(=O)c2cnc3c(-c4ccccc4)c(C)nn3c2C)cc1OCC = inactive
COc1ccc(S(=O)(=O)N(CCc2ccccc2)CC(=O)Nc2cc(Cl)ccc2C)cc1 = inactive
CCCCN1C(=O)c2[nH]nc(-c3ccccc3O)c2C1c1ccc(C(C)(C)C)cc1 (stereo not drawn) = inactive

Kindly consider the entry below.
Problem: Tell me its redox activity vs DA3003 given COc1ccc(C(=O)Nc2ccc(-n3nncc3-c3ccccc3)cc2)cc1OC as the entry.
Solution: inactive
